Test system: NCI-H23
Assay: NCI tumour cell line growth inhibition, 48 h
The source made the active and inactive calls. Cut-off read from the data, not from the text of the source: active = GI50 up to about 1.1 µM and inactive = higher.
Please respond with reported GI50 for every item in the list.

Problem: Item "Cc1cc(C)c2c(=O)n(CN3CCC(C#N)(c4ccccc4)CC3)sc2n1" has what recorded GI50?
Result: 34.4 µM (inactive)

Problem: Recorded GI50 of "O=S(=O)(N/N=C/c1cccc(/C=N/NS(=O)(=O)c2ccccc2)c1)c1ccccc1" , please.
Result: 87.1 µM (inactive)

Problem: So what's the measured GI50 for this one? "CCCCCCCC/C=C\CCCCCCC/C=C1\C[C@](/C=C/C(=O)OC)(CO)OC1=O"
Result: 3.71 µM (inactive)

Problem: I would be grateful if you could share the reported GI50 for "COc1ccc(/C=C(/C(=O)c2ccc(Cl)cc2)N2C=CC=CC2=C(C#N)C#N)cc1OC" .
Result: 11.5 µM (inactive)

Problem: What measured GI50 goes with "Nc1cc(N)c(/N=N/c2cccc3c(S(=O)(=O)O)cccc23)cc1/N=N/c1cc([N+](=O)[O-])ccc1O" ?
Result: 45 µM (inactive)

* * *

Tested on: HOP-92
Experiment: NCI tumour cell line growth inhibition, 48 h
Calls of active or inactive are those of the source. Rule as the data show it: active = GI50 up to about 1.1 µM and inactive = higher.
reported_property: GI50

Problem: Look up GI50: C=C(C)C(=O)O[C@H]1CC2(CO)O[C@@H]2CC/C(COC(C)=O)=C/C2OC(=O)C(=C)[C@@H]21 (stereo not given in full)
Result: 26.4 µM (inactive)

Problem: State the recorded GI50 for this entry: "CC(=O)NNc1nc(C)c(C(=O)NNC(=O)C(=O)Nc2ccc(Cl)c([N+](=O)[O-])c2)s1"
Result: 43.3 µM (inactive)

Problem: Fill in: GI50 of "Cc1cc(O)cc2c1c(=O)c1ccccc1n2C" is ___
Result: 39.4 µM (inactive)

Problem: I'd like to know its GI50. The molecule in question is "CCCCCC(=O)Nc1[nH]nnc1C#N"
Result: > 100 µM (inactive)

Problem: Looking for the measured GI50 of "Cc1cc(C)c2c(=O)n(CN3CCC(C#N)(c4ccccc4)CC3)sc2n1" , can you help?
Result: 88.1 µM (inactive)

Problem: # lookup: GI50 of "Cc1ccc(C)c(NC(=O)C(=O)CC(=O)c2cccc3ccccc23)c1"
Result: > 100 µM (inactive)

Problem: I would be grateful if you could share the reported GI50 for "CCOC(=O)NC(=O)c1cn(CCN2CCN(C(=O)CCCCCCCCCCNc3ncnc4[nH]cnc34)CC2)c(=O)[nH]c1=O" .
Result: > 100 µM (inactive)

Problem: Recorded GI50 for "C[C@@H]1O[C@@H]2OCC[C@@H]2C2=C1C(=O)c1ccccc1C2=O" , please?
Result: 4.38 µM (inactive)

Problem: Any idea what GI50 was measured for "O=C1c2ccccc2C(=O)N1CCCSc1ccccc1" ?
Result: > 100 µM (inactive)

Problem: Give its GI50 value. Item: CC1=CCC[C@@]2(C)C(CC[C@@H]2C(C)/C=C/C(C)C)c2ccc(cc2C(=O)O)C[C@@H](O)CC1 (stereo not given in full)
Result: 14.4 µM (inactive)

Problem: If you can, please state the reported GI50 value of "O=C(O)c1nc2ccccc2nc1Nc1ccc(Cl)c(Cl)c1" .
Result: 16.1 µM (inactive)

Problem: Entry "Cc1ccc(S[C@@H](C)[C@@](O)(CF)CN(Cc2ccccc2)C(=O)C(F)(F)F)cc1" has what GI50?
Result: 4.65 µM (inactive)

Problem: Please give the measured GI50 for this molecule: "O=S(=O)(N/N=C/c1cccc(/C=N/NS(=O)(=O)c2ccccc2)c1)c1ccccc1"
Result: 38.9 µM (inactive)

Problem: Query: GI50; subject: "CC1(C)CCc2cc3c(-c4ccccc4)cc(=O)oc3cc2O1"
Result: 21.1 µM (inactive)

Problem: Entry "N=c1oc2c(Cl)cc(Cl)cc2cc1C(=O)Nc1cccc2ccccc12" : reported GI50 = ?
Result: 15.3 µM (inactive)

Problem: Suppose we examine the molecule COc1ccc(CNc2ccn(C3OC(CO)C(O)C3O)c(=O)n2)cc1 (stereo not given) ; what GI50 value has been reported?
Result: 47.1 µM (inactive)

Problem: Please give the measured GI50 for this molecule: "Clc1ccccc1C(c1ccccc1)(c1ccccc1)n1ccnc1"
Result: 11.8 µM (inactive)

Problem: Sample "C#CCOC(=O)c1ccc(OC(C)=O)cc1" — what was its GI50?
Result: > 100 µM (inactive)

Problem: For the molecule shown here, "NS(=O)(=O)c1ccc(/N=N/c2ncccc2O)cc1" , give the reported GI50.
Result: > 100 µM (inactive)

Problem: Using the record for CC1CC[C@@]2(OC1)OC1C[C@H]3[C@@H]4CC=C5CC(OC6OC(CO)C(OC7OC(CO)C(O)C(OC8OCC(O)C(O)C8O)C7OC7OC(CO)C(O)C(O)C7O)C(O)C6O)CCC5(C)[C@H]4CCC3(C)C1[C@@H]2C (stereo not given in full) , report its GI50.
Result: > 25 µM (inactive)
